The measured values listed here are drawn from the supplement of paper PMC13380429.

Please go through the items and note down their cell viability.
system: Calu-3; assay: cell viability relative to DMSO; higher = less toxic; conditions: 72 h; 10000 nM

| compound | target-or-system | cell viability |
| --- | --- | --- |
| CC#CCC(C)[C@H](O)/C=C/[C@@H]1[C@H]2C/C(=C/CCCC(=O)O)C[C@H]2C[C@H]1O (some centres undefined) [iloprost] | Calu-3 | 103% |
| CN1CCC(CNc2ccc3ncc(-c4cccc(OC(F)(F)F)c4)n3n2)CC1 [SGI-1776] | Calu-3 | 46.2% |
| CC1/C=C/C=C/C=C/C=C/C=C/C=C/C=C/C(OC2O[C@H](C)[C@@H](O)[C@H](N)[C@@H]2O)CC(O)C(C(=O)O)C(O)CC(=O)CC(O)CC(O)CC(O)CC(=O)CCCC(=O)CC(=O)OC1C(C)CC(C)C(O)CC(=O)c1ccc(N)cc1 (some centres undefined) [candicidin] | Calu-3 | 97.5% |
| Cc1nccc2[nH]c(=O)ccc12 [medorinone] | Calu-3 | 96.3% |

Lab note: each compound below needs its cell viability filled in.
1. O=S1(=O)N[C@H]2CCCN2c2ccccc21
2. Ic1cncc(OC[C@@H]2CCN2)c1

101%
102%

Field: cell viability. Fill in for each record below.
1. CN(C)/N=N/c1[nH]cnc1C(N)=O [dacarbazine]
2. O=C([O-])c1ccccn1.O=C([O-])c1ccccn1.O=C([O-])c1ccccn1.[Cr+3] [chromium-picolinate]
3. CCN1C[C@H](C)n2c(c(O)c3c(=O)n(Cc4ccc(F)c(Cl)c4)nc(C(=O)NC)c32)C1=O [MK-2048]
4. COc1cc2c(cc1Cc1cccc(Cl)c1F)c(=O)c(C(=O)O)cn2[C@H](CO)C(C)C [elvitegravir]

1. 95.7%
2. 97.6%
3. 93.7%
4. 88.1%

Please give cell viability, item by item, for the list that follows.
1. O=C1Nc2ccccc2C2(CCN(CCc3ccc(C(F)(F)F)cc3)CC2)O1
2. O=S(=O)(N[C@H]1CC[C@@](c2cc(F)ccc2F)(S(=O)(=O)c2ccc(Cl)cc2)CC1)C(F)(F)F [MRK-560]
3. C/C(=C\c1ccc(C(=O)O)cc1)c1ccc2c(c1)C(C)(C)CCC2(C)C [TTNPB]
4. Nc1nc(-c2nn(Cc3ccccc3F)c3ncccc23)ncc1C1CC1 [BAY-41-2272]
5. O=C(NCCCN1CCC2(CC1)OCc1ccccc12)[C@H]1CCCN1Cc1ccccc1 [BAN-ORL-24]
6. O=C1C(O)=C(O)C(=O)C(O)=C1O [tetroquinone]
7. COc1cc2c(cc1O)C(CCc1ccc(Cl)cc1)N(C)CC2 (centres undefined) [Ro-04-5595]

82.4%
102%
77.2%
110%
87.1%
93.3%
92.1%

Each compound below has a reported value. Please supply its cell viability.
1. CN1c2c([nH]c(N)nc2=O)NC[C@@H]1CNc1ccc(C(=O)N[C@@H](CCC(=O)O)C(=O)O)cc1 [metafolin]
2. CN1C(=O)N[C@H](Cc2c[nH]c3c(Cl)cccc23)C1=O [necrostatin-2]

1. 96.9%
2. 90.4%
